Where these numbers come from: the RNAGym collection of RNA variant scans (doi:10.1126/science.aae0568)

B1: tRNA (parent)
chain: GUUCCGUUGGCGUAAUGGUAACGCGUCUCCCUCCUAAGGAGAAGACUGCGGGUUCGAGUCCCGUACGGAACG

# Variants of: B1
# assay_protocol: yeast fitness relative to wild type (ratio to wild type); higher = fitter; tRNA-Arg(CCU), competitive growth, 37 C, YPD
This sample holds only a part of the variants without activity.
yeast fitness listing for selected variants.

# count of solved cases: 8
U8C A42U    0.791
C11A A42C C46G C60A    ≤ 0.5
G6A A15G U54G C55U    ≤ 0.5
G6A C22U G23C C49G U53G A57G    ≤ 0.5
A20C A21C A45G    ≤ 0.5
C4U A14U C22U A40U G44C A57C    ≤ 0.5
U2G C24G C29G C31G    0.515
C4U U8A U13C A37G C46A    ≤ 0.5

Q. Requested read-out: yeast fitness. Entry: C5U A42G G56C
A. ≤ 0.5

Q. Record: G41A A45U G58U C60A
A. 0.583

Q. Record: C22U A37U C49A C62U
A. 0.598

Q. Record: U19A C24A
A. 0.598
